Data origin, for the record: ChEMBL document CHEMBL5537160

# tested_on: Metabotropic glutamate receptor 4 (Rattus norvegicus)
# Sequence (P31423 whole entry): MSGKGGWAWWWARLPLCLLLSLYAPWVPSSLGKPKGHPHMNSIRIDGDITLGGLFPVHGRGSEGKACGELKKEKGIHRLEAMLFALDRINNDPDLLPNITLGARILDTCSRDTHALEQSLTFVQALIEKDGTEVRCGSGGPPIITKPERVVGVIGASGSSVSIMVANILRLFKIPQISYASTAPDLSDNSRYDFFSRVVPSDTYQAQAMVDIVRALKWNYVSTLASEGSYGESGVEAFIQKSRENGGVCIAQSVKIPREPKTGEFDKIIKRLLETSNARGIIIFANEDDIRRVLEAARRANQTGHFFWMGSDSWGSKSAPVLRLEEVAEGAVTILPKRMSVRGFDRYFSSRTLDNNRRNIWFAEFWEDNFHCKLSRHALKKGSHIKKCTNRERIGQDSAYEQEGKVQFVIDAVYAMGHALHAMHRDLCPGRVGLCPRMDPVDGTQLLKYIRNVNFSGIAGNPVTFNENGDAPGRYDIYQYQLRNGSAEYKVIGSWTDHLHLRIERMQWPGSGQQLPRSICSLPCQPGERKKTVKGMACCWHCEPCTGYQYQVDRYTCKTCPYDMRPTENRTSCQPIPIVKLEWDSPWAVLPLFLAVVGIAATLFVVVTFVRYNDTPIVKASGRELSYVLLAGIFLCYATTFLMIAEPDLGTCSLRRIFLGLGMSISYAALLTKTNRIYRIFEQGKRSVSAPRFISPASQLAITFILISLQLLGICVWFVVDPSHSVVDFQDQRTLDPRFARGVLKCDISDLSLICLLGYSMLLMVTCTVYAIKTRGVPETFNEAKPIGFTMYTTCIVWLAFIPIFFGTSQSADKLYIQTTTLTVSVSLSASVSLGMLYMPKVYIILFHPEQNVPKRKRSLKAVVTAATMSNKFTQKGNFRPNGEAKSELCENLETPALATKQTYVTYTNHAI
# assay_comment: Agonist activity at rat mGlu4 transfected in HEK293 cells co-transfected with chimeric Gqi9 incubated for 30 mins by IP-one HTRF assay
# Type: functional, cell-based
# condition_label: read-out: EC50
outcome_measure: pEC50
Answers are plain numbers, as −log10 of the molar value.

# given_smiles, outcome_measure, readout_value
data = [
    ("N[C@@H](CCP(=O)(O)O)C(=O)O", "pEC50", 6.74),
]

Q: State its pEC50: Cl.N[C@H](C(=O)O)[C@H]1[C@H](CC(=O)O)[C@@H]1C(=O)O
Result: 6.96

---

# assay_comment: Cmax in C57BL/6 mouse brain at 100 mg/kg, po by LC-MS/MS analysis
# Assay type: ADME, organism-based
outcome_measure: Cmax (ng/g)
Answers are plain numbers, in ng/g.

Q: For the compound N[C@@]1(C(=O)O)CC[C@H]2[C@H](C(=O)O)[C@H]21 , give its reported Cmax.
Result: 76
